Target: Polyunsaturated fatty acid lipoxygenase ALOX15 (Homo sapiens)
Sequence (whole entry): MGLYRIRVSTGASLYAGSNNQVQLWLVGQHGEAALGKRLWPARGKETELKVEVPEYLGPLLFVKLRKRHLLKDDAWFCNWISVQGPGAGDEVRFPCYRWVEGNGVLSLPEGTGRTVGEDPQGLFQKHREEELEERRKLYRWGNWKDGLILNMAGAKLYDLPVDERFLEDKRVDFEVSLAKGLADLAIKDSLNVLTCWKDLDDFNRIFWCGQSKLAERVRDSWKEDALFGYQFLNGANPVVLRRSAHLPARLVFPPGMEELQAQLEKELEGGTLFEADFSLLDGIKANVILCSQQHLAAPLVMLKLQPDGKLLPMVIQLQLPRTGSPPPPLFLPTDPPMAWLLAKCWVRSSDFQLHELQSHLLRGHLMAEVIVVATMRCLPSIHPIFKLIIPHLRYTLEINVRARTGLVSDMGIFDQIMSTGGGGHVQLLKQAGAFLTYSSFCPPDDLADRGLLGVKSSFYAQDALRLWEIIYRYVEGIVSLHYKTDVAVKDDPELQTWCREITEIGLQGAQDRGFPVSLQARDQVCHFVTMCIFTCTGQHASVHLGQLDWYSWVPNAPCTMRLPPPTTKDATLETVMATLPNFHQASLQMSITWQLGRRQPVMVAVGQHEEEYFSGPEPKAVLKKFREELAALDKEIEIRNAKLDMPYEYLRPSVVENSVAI
Assay: Inhibitory activity against human reticulocyte 15-lipoxygenase (15-HLO)
Conditions: concentration not given here
measured_endpoint: inhibition (%)
One number for each entry, in %.

Worked examples follow.
>>> measured("CCC(=O)Oc1cc(C[C@@H](C)[C@@H](C)Cc2cc(OC(=O)CC)c(OC(=O)CC)cc2[N+](=O)[O-])c([N+](=O)[O-])cc1OC(=O)CC")
0
>>> measured("COc1cc(C[C@@H](C)[C@@H](C)Cc2cc(OC)c(OC)cc2[N+](=O)[O-])c([N+](=O)[O-])cc1OC")
0
>>> measured("C[C@H](Cc1ccc(OCOC(=O)C(C)(C)C)c(OCOC(=O)C(C)(C)C)c1)[C@@H](C)Cc1ccc(OCOC(=O)C(C)(C)C)c(OCOC(=O)C(C)(C)C)c1")
0
>>> measured("CC(=O)Oc1ccc(C[C@@H](C)[C@@H](C)Cc2ccc(OC(C)=O)c(OC(C)=O)c2)cc1OC(C)=O")
0

Proceeding to the next compound to report its inhibition.
[ask] Which inhibition value is on record for COc1cc(N)c(C[C@@H](C)[C@@H](C)Cc2cc(OC)c(OC)cc2N)cc1OC ?
[reply] 0

The reported numbers originate from ChEMBL document CHEMBL1135472.
